test: head-to-tail type lactamisation of side-chain-protected branched depsipeptide (Gly10 N-terminus of ester branch + C-terminal Pro9), HATU/DIPEA (pH ~10), microwave; conditions: the molecule shown is the open-chain precursor; 28-membered ring; DCM; 6.0 mM; 70.0 °C; 1.0 h
Experimental endpoint: ring closure, overall yield (%)
The reply should contain only the number, in %.

Structure	Unit abbreviation	ring closure, overall yield
CCCCCCCCCC(=O)NC[C@@H](C)C(=O)NCC(=O)N[C@H](CCC(=O)OC(C)(C)C)C(=O)N[C@@H](Cc1ccc(OC(C)(C)C)cc1)C(=O)N[C@H](C(=O)N[C@@H](C(=O)N[C@@H](CC(=O)OC(C)(C)C)C(=O)N[C@@H](CC(=O)OC(C)(C)C)C(=O)N1CCC[C@H]1C(=O)O)[C@H](C)CC)[C@@H](C)OC(=O)CN(C)C(=O)[C@H](CCC(=O)OC(C)(C)C)NC(=O)[C@@H](CCC(=O)OC(C)(C)C)NC(=O)CN	%	0.5
CCCCCCCCCC(=O)NC[C@@H](C)C(=O)NCC(=O)N[C@H](CCC(=O)OC(C)(C)C)C(=O)N[C@@H](Cc1ccc(OC(C)(C)C)cc1)C(=O)N[C@H](C(=O)N[C@@H](C(=O)N[C@@H](CC(=O)OC(C)(C)C)C(=O)N[C@@H](CC(=O)OC(C)(C)C)C(=O)N1CCC[C@H]1C(=O)O)[C@H](C)CC)[C@@H](C)OC(=O)CN(C)C(=O)[C@H](CCC(=O)OC(C)(C)C)NC(=O)[C@H](CC(=O)OC(C)(C)C)NC(=O)CN	%	0.2
CCCCCCCCCC(=O)NC[C@@H](C)C(=O)NCC(=O)N[C@H](CCC(=O)OC(C)(C)C)C(=O)N[C@@H](Cc1ccc(OC(C)(C)C)cc1)C(=O)N[C@H](C(=O)N[C@@H](C(=O)N[C@@H](CC(=O)OC(C)(C)C)C(=O)N[C@@H](CC(=O)OC(C)(C)C)C(=O)N1CCC[C@H]1C(=O)O)[C@H](C)CC)[C@@H](C)OC(=O)CN(C)C(=O)[C@H](CC(=O)OC(C)(C)C)NC(=O)[C@@H](CCC(=O)OC(C)(C)C)NC(=O)CN	%	0.4

Now consider a different molecule.
Lab note: `CCCCCCCCCC(=O)NC[C@@H](C)C(=O)NCC(=O)N[C@H](CCC(=O)OC(C)(C)C)C(=O)N[C@@H](Cc1ccc(OC(C)(C)C)cc1)C(=O)N[C@H](C(=O)N[C@@H](C(=O)N[C@@H](CC(=O)OC(C)(C)C)C(=O)N[C@@H](CC(=O)OC(C)(C)C)C(=O)N1CCC[C@H]1C(=O)O)[C@H](C)CC)[C@@H](C)OC(=O)CN(C)C(=O)[C@H](CC(=O)OC(C)(C)C)NC(=O)[C@H](CCC(=O)OC(C)(C)C)NC(=O)CN` gave ring closure, overall yield of 0.2

###

assay: TLC precursor-binding assay with C55-P; parameters: key: “+” indicates binding confirmed; “-” indicates no binding; “~” indicates potential binding with absence of precursor band; details: peptide 0.5, 1, 2 equiv. with C55-P in Tris·HCl pH 7.5, 50 mM CaCl2, 1 h; silica TLC
Numbered stars: 1 amine (or outer) side, 2 acyl side, 3 side chain; on linkers, the order of the positions; unused ones are H or OH. Bridge positions count the residues as written; N and C are the ends. Square brackets hold non-standard residues; d marks the D form. Peptide text beside a SMILES is read from it. * marks the point of attachment. β2hAla(R) = C[C@H](CN[*:1])C(=O)[*:2]; Decanoyl = CCCCCCCCCC(=O)*; Dap = NC[C@H](N)C(=O)O; Sar = CNCC(=O)O
Experimental endpoint: C55-P (TLC binding)

Use these answered entries as a reference point.
Compound	C55-P (TLC binding)
CCCCCCCCCC(=O)N[C@@H](CC(=O)O)C(=O)N[C@H]1CNC(=O)[C@@H]2CCCN2C(=O)[C@H](C(C)C)NC(=O)CNC(=O)[C@H](CC(=O)O)NC(=O)CNC(=O)[C@H](CC(=O)O)NC(=O)[C@H](CC(=O)O)NC(=O)[C@H](CCCCN)NC(=O)[C@@H](C(C)C)NC1=O [Peptide M5] (Decanoyl-D[Dap][dV]KDDGDGVP; lactam 2-C)	-
CCCCCCCCCC(=O)NC[C@@H](C)C(=O)NCC(=O)N[C@H](CCC(=O)O)C(=O)N[C@@H](Cc1ccc(O)cc1)C(=O)N[C@@H]1C(=O)N[C@H]([C@H](C)CC)C(=O)N[C@@H](CC(=O)O)C(=O)N[C@@H](CC(=O)O)C(=O)N2CCC[C@H]2C(=O)NCC(=O)N[C@H](CCC(=O)O)C(=O)N[C@@H](CCC(=O)O)C(=O)N(C)CC(=O)O[C@@H]1C [Peptide C1a] (Decanoyl-[β2hAla(R)]G[dE]YT[dI]DDPG[dE]E[Sar]; ester 5-C)	-
CCCCCCCCCC(=O)N[C@@H](CC(=O)O)C(=O)N[C@H]1CNC(=O)[C@@H]2CCCN2C(=O)[C@H](C(C)C)NC(=O)[C@@H](CC(=O)O)NC(=O)CNC(=O)[C@H](CC(=O)O)NC(=O)[C@H](CC(=O)O)NC(=O)[C@H](CCCCN)NC(=O)[C@@H](C(C)C)NC1=O [Peptide M1] (Decanoyl-D[Dap][dV]KDDG[dD]VP; lactam 2-C)	-
CCCCCCCCCC(=O)N[C@@H](Cc1c[nH]c2ccccc12)C(=O)N[C@H](CC(N)=O)C(=O)N[C@@H](CC(=O)O)C(=O)N[C@@H]1C(=O)NCC(=O)N[C@@H](CCCN)C(=O)N[C@@H](CC(=O)O)C(=O)N[C@H](C)C(=O)N[C@@H](CC(=O)O)C(=O)NCC(=O)N[C@H](CO)C(=O)N[C@@H]([C@H](C)CC(=O)O)C(=O)N[C@@H](CC(=O)c2ccccc2N)C(=O)O[C@@H]1C [Daptomycin, reference compound]	-
CCCCCCCCCC(=O)N[C@@H](CC(=O)O)C(=O)N[C@H]1CNC(=O)[C@@H]2CCCN2C(=O)[C@H](C(C)C)NC(=O)[C@H](CC(=O)O)NC(=O)CNC(=O)[C@H](CC(=O)O)NC(=O)CNC(=O)[C@H](CC(=O)O)NC(=O)[C@H](CCCCN)NC(=O)[C@@H](C(C)C)NC1=O [Peptide M3] (Decanoyl-D[Dap][dV]KDGDGDVP; lactam 2-C)	-
CCCCCCCCCC(=O)N[C@@H](CC(=O)O)C(=O)N[C@H]1CNC(=O)[C@@H]2CCCN2C(=O)[C@H](C(C)C)NC(=O)CNC(=O)[C@@H](CC(=O)O)NC(=O)CNC(=O)[C@H](CC(=O)O)NC(=O)[C@H](CC(=O)O)NC(=O)[C@H](CCCCN)NC(=O)[C@@H](C(C)C)NC1=O [Peptide M4] (Decanoyl-D[Dap][dV]KDDG[dD]GVP; lactam 2-C)	-
CCCCCCCCCC(=O)N[C@@H](CC(=O)O)C(=O)N[C@H]1CNC(=O)[C@@H]2CCCN2C(=O)[C@H](C(C)C)NC(=O)[C@@H](CC(=O)O)NC(=O)CNC(=O)[C@H](CC(=O)O)NC(=O)CNC(=O)[C@H](CC(=O)O)NC(=O)[C@H](CCCCN)NC(=O)[C@@H](C(C)C)NC1=O [Peptide M2] (Decanoyl-D[Dap][dV]KDGDG[dD]VP; lactam 2-C)	-
CCCCCCCCCC(=O)NC[C@@H](C)C(=O)NCC(=O)N[C@H](CCC(=O)O)C(=O)N[C@@H](Cc1ccc(O)cc1)C(=O)N[C@@H]1C(=O)N[C@H]([C@H](C)CC)C(=O)N[C@@H](CC(=O)O)C(=O)N[C@@H](CC(=O)O)C(=O)N2CCC[C@H]2C(=O)NCC(=O)N[C@@H](CC(=O)O)C(=O)N[C@@H](CCC(=O)O)C(=O)N(C)CC(=O)O[C@@H]1C [Peptide C6] (Decanoyl-[β2hAla(R)]G[dE]YT[dI]DDPGDE[Sar]; ester 5-C)	~
CCCCCCCCCC(=O)NC[C@@H](C)C(=O)NCC(=O)N[C@H](CCC(=O)O)C(=O)N[C@@H](Cc1ccc(O)cc1)C(=O)N[C@@H]1C(=O)N[C@H]([C@H](C)CC)C(=O)N[C@@H](CC(=O)O)C(=O)N[C@@H](CC(=O)O)C(=O)N2CCC[C@H]2C(=O)NCC(=O)N[C@H](CC(=O)O)C(=O)N[C@@H](CCC(=O)O)C(=O)N(C)CC(=O)O[C@@H]1C [Peptide C5] (Decanoyl-[β2hAla(R)]G[dE]YT[dI]DDPG[dD]E[Sar]; ester 5-C)	-

Continue with the next compound.
The recorded C55-P (TLC binding) for entry CCCCCCCCCC(=O)NC[C@@H](C)C(=O)NCC(=O)N[C@H](CCC(=O)O)C(=O)N[C@@H](Cc1ccc(O)cc1)C(=O)N[C@@H]1C(=O)N[C@H]([C@H](C)CC)C(=O)N[C@@H](CC(=O)O)C(=O)N[C@@H](CC(=O)O)C(=O)N2CCC[C@H]2C(=O)NCC(=O)N[C@H](CCC(=O)O)C(=O)NCC(=O)N[C@@H](CCC(=O)O)C(=O)N(C)CC(=O)O[C@@H]1C [Peptide C9] (Decanoyl-[β2hAla(R)]G[dE]YT[dI]DDPG[dE]GE[Sar]; ester 5-C) equals -

Data provenance: paper PMC12650660
